tested on: OVCAR-5 ovarian; test: NCI-60 one-dose screen, 48 h (100 = growth as untreated, 0 = no growth, -100 = all killed); conditions: 10 µM
About 83,000 compounds went through this panel and 20% of them were active in at least one assay; those are over-represented in the sample as a whole. Activity calls are given as the source filed them. Rule for the calls: active = growth percent below 10; inactive = the rest.
result-type: growth

What growth value was documented for this compound, O=[N+]([O-])c1ccc(Br)o1 ?
95.4% (inactive)

What growth value was documented for this compound, COc1ccc(C2C=C(c3ccc(OC)c(OC)c3)N=C3SC=CN32)c(Br)c1 (stereo not given) ?
102% (inactive)

What growth value was documented for this compound, COc1ccc(/C=C(\c2cc(OC)c(OC)c(OC)c2)c2nnc(-c3cccs3)o2)cc1 ?
99.4% (inactive)

What growth value was documented for this compound, CN(C1c2ccccc2Oc2ccccc21)S(=O)(=O)c1cc(Cl)ccc1Cl ?
84.4% (inactive)

What growth value was documented for this compound, COCCOC(=O)NC(=O)Nc1ccc(C(=O)c2ccc(Cl)cc2)cc1 ?
90.7% (inactive)

What growth value was documented for this compound, CCC(OC(=O)CC(C)C)c1ccccc1 (stereo not given) ?
104% (inactive)

What growth value was documented for this compound, FC(F)(F)c1ccc(-c2ncc(-c3ccc(C(F)(F)F)cc3)c(NCc3cc(C(F)(F)F)cc(C(F)(F)F)c3)n2)cc1 ?
79.4% (inactive)

What growth value was documented for this compound, FC(F)(F)c1ccc(-c2nc(-c3nc4cc(Cl)c(Cl)cc4[nH]3)c3ccccn23)cc1 ?
88.6% (inactive)

What growth value was documented for this compound, Cc1nc2sccn2c1-c1csc(Nc2cccc(Cl)c2C)n1 ?
77.9% (inactive)

What growth value was documented for this compound, CCN(CC)CCOC(=O)c1ccc(NC(=O)Nc2cccc(Cl)c2)cc1 ?
105% (inactive)

###

System: OVCAR-8 ovarian
Experiment: NCI-60 one-dose screen, 48 h (100 = growth as untreated, 0 = no growth, -100 = all killed)
Conditions: 10 µM
Experimental: Growth inhibition of the OVCAR-8 human tumor cell line is measured as a screen for anti-cancer activity. Cells are grown in 96 well plates and exposed to the test compound for 48 hours. Compounds are tested at a single concentration, which is 10^-5 M for most compounds. The reported endpoint is percent growth (GI% or GIPRCNT), where numbers from 0 - 100% represent growth inhibition, and numbers from -100% - 0 represent cell death. For example, a value of 40 represents 60% growth inhibition. […]
The panel holds about 83,000 compounds, 20% with a hit somewhere; the sample as a whole holds those more often.
result-type: growth (%)
Quick reminder: number only, in %, skip the unit.

What growth value was documented for this compound, COc1ccc(-c2ccccc2)cc1C(=O)c1ccc(-c2ccccc2)cc1 ?
93.1

What growth value was documented for this compound, Cc1nn2c(/C=C3/C(=O)Nc4ccc(Cl)cc43)c(-c3ccccc3)nc2s1 ?
14.6

What growth value was documented for this compound, NC(=O)C1CCCN(Cc2c[nH]c3ccccc23)C1 (stereo unspecified) ?
98.3

What growth value was documented for this compound, CNC(=S)Sc1ccc([N+](=O)[O-])cc1[N+](=O)[O-] ?
81.3

What growth value was documented for this compound, CCCc1c(C)nc2scc(-c3ccc(Cl)cc3)n2c1=O ?
107

What growth value was documented for this compound, COc1ccc(NC(=O)c2sc3nc4c(cc3c2N)C(O)CCC4)cc1 (stereo unspecified) ?
101

What growth value was documented for this compound, COc1cccc2c1O/C(=C\c1ncc([N+](=O)[O-])n1C)C2=O ?
-23.3

What growth value was documented for this compound, COc1cc(-c2n/c(=C\c3c(O)[nH]c4ccccc34)cc3c2=Nc2ccccc2-3)cc(OC)c1OC ?
11.3

What growth value was documented for this compound, CCCCCCCCCCCCCC[n+]1ccc(C)cc1 ?
-19.1

What growth value was documented for this compound, CC(=O)/C(=C\c1ccc(Cl)cc1)c1ccccc1 ?
15.2

What growth value was documented for this compound, CC(=O)Nc1ccc(Sc2ccc(NC(C)=O)cc2)cc1 ?
94.7

###

system: UACC-62 melanoma; test: NCI-60 one-dose screen, 48 h; conditions: 10 µM
Compounds without any hit were thinned out: in the full panel of roughly 83,000, 20% have a hit. Activity calls are given as the source filed them. Rule for the calls: active = growth percent below 10; inactive = the rest.
Returns: one label drawn from active, inactive

In this assay, the call recorded for N#Cc1c(-c2ccccc2)nc(SCC(=O)N2CCOCC2)[nH]c1=O was what?
inactive

In this assay, the call recorded for C=CCc1cc(Nc2c3ccc(Cl)cc3nc3ccc(OC)cc23)cc(CN(CC)CC)c1O was what?
inactive

In this assay, the call recorded for Cc1cccc2c(Nc3ccc(NS(C)(=O)=O)cc3)c3ccc([N+](=O)[O-])cc3nc12 was what?
active

In this assay, the call recorded for CCN(CC)CC(O)CNc1ccnc2cc(Cl)c(Cl)cc12 (stereo not given) was what?
inactive

In this assay, the call recorded for C/C(=N/NC(=O)c1sc(=S)n(C)c1N)c1cc2cc(Cl)ccc2o1 was what?
inactive

In this assay, the call recorded for O=C(Nc1cccc([N+](=O)[O-])c1)NN1CCCCCC1 was what?
inactive

In this assay, the call recorded for O=C(/C=C/c1nnc2n(Cc3ccccc3)c(=O)c3c4c(sc3n12)CCCC4)c1ccccc1 was what?
inactive

In this assay, the call recorded for CC(=O)c1ccc(NCn2nc(-c3ccc(Cl)cc3)oc2=S)cc1 was what?
inactive

In this assay, the call recorded for COc1ccc(-c2n/c(=C\c3c(O)[nH]c4ccccc34)cc3c2=Nc2ccccc2-3)cc1 was what?
inactive

In this assay, the call recorded for CCCCCCCCCCCCCCCCn1cc[n+](C)c1 was what?
active

###

tested on: A549/ATCC NSCLC; assay: NCI-60 one-dose screen, 48 h (100 = growth as untreated, 0 = no growth, -100 = all killed); conditions: 10 µM
About 83,000 compounds went through this panel and 20% of them were active in at least one assay; those are over-represented in the sample as a whole.
Label rule, in plain words: growth of 90% and up is Yes, under 90% is No.

Determine whether this molecule has growth no lower than 90%: CNC(=O)c1cc(Oc2ccc(NC(=O)Nc3ccc(Cl)c(C(C)(C)C)c3)c(F)c2)ccn1
No

Determine whether this molecule has growth no lower than 90%: NS(=O)(=O)c1ccc(N2N=C(c3ccc(-c4ccccc4)cc3)CC2c2ccc(Cl)cc2)cc1 (stereo not given)
No

Determine whether this molecule has growth no lower than 90%: COc1ccc(/C=C2\SC(=S)N(CCCN3CCOCC3)C2=O)c(OC)c1
Yes

Determine whether this molecule has growth no lower than 90%: COCCOC(=O)NC(=O)Nc1ccc(/C(=N/O)c2ccc(Cl)cc2)cc1
No

Determine whether this molecule has growth no lower than 90%: O=C(COc1ccc(-c2nc3ccccc3[nH]2)cc1)N=Nc1c(O)[nH]c2ccccc12
Yes

Determine whether this molecule has growth no lower than 90%: O=c1[nH]c(=O)n(C2C[C@@H](O)[C@@H](CO)O2)cc1F (stereo not given in full)
No

Determine whether this molecule has growth no lower than 90%: CCCCC(CC#N)(CCC)CCC
Yes

Determine whether this molecule has growth no lower than 90%: Cc1ccc(C2C=C(c3ccc(Cl)cc3)N=C3SC=CN32)c(Br)c1 (stereo not given)
No

Determine whether this molecule has growth no lower than 90%: CCCCCN(CCCCC)C(C)C(O)c1ccc2cc(Cl)c3ccccc3c2c1 (stereo not given)
Yes

Determine whether this molecule has growth no lower than 90%: Cc1ccc(/C(CS(=O)(=O)c2ccc(C)cc2)=N\O)cc1
Yes

###

test system: NCI/ADR-RES ovarian; experiment: NCI-60 one-dose screen, 48 h (100 = growth as untreated, 0 = no growth, -100 = all killed); conditions: 10 µM
The panel holds about 83,000 compounds, 20% with a hit somewhere; the sample as a whole holds those more often.
result-type: growth (%)
Quick reminder: number only, in %, skip the unit.

What growth value was documented for this molecule, O=C(O)c1ccccc1C(=O)c1cccc2c(F)cccc12 ?
104

What growth value was documented for this molecule, CC(=O)n1nc(C(=O)OC(C)(C)C)c2cc(F)c(F)cc21 ?
98.3

What growth value was documented for this molecule, CC1=CSC2=NC(c3ccc(Cl)c(Cl)c3)=CC(c3ccc(Cl)cc3)N12 (stereo not given) ?
92.9

What growth value was documented for this molecule, COc1ccc(C2C=C(c3ccc(Cl)cc3)N=C3SC=CN32)c(Br)c1 (stereo not given) ?
89.9

What growth value was documented for this molecule, COc1ccc(-n2nnc3c(sc4ccccc43)c2=O)cc1 ?
52.9

What growth value was documented for this molecule, CCCCN(CCCC)c1ccc(C(=NC(C)CCCN(CC)CC)c2ccc(N(C)C)cc2)cc1 (stereo not given) ?
-51

What growth value was documented for this molecule, COc1ccc(-c2[nH]ncc2/C=C/c2cc(C(F)(F)F)[nH]c(=O)n2)cc1 ?
105

What growth value was documented for this molecule, COc1ccc(-c2nnc(SC/C(=N\O)c3ccccc3)o2)cc1 ?
91.2

What growth value was documented for this molecule, O=C(Nc1ccc(OCc2nnc(-c3ccccc3)o2)c(F)c1)Nc1ccc(Cl)c(Cl)c1 ?
58.6

What growth value was documented for this molecule, CCN1CCN(c2nc(NNC(=O)c3cccc(OC)c3)nc(N3CCN(C(c4ccccc4)c4ccccc4)CC3)n2)CC1 ?
76.2
